Reference source for all entries: ChEMBL document CHEMBL5665443

biological target: Endonuclease III-like protein 1 (Homo sapiens) (UniProt P78549); details: Compound Concentration 10.0 uM, Hit No;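 note: enzyme assay tracking NTHL1 cutting and release of a quenched double-stranded DNA oligo substrate, read as fluorescence at 594 nm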
Sequence (P78549 whole entry): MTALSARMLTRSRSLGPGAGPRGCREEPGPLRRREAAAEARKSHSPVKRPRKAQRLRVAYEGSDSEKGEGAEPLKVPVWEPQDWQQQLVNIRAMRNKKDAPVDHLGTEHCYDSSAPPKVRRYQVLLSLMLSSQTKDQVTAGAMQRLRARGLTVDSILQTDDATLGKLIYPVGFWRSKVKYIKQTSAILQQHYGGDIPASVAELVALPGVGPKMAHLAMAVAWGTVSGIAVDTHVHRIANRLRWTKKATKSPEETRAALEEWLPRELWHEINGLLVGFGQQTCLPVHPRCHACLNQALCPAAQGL
Description: Inhibition of NTHL1 by quantifying inhibition of NTHL1-mediated cleavage and dissociation of quenched duplex DNA oligonucleotides, measured as fluorescence at 594 nm.
inhibition overview

{"compound": "Cc1ccccc1C#Cc1ccc(CCC(=O)O)cc1", "inhibition [%]": 6.35}
{"compound": "CN[C@@H]1CCc2[nH]c3ccc(C(N)=O)cc3c2C1", "inhibition [%]": -9.8}
{"compound": "COc1ccnc(N2CCC3(CCCN(Cc4c[nH]c5ccccc45)C3=O)CC2)n1", "inhibition [%]": 6.32}
{"compound": "CCCCC(=O)N(Cc1ccc(-c2ccccc2C(=O)O)cc1)c1ccccc1", "inhibition [%]": 7.17}
{"compound": "CC(C)CCC[C@@H](C)[C@H]1CC[C@H]2[C@@H]3[C@H](O)C=C4C[C@@H](O)CC[C@]4(C)[C@H]3CC[C@]12C", "inhibition [%]": -1.74}
{"compound": "CCCCCC(O)/C=C/[C@H]1C(=O)CC(O)C1C/C=C\\CCCC(=O)O (some centres not stated)", "inhibition [%]": 12.9}
{"compound": "C[C@H](Cc1cc2c(c(C(N)=O)c1)N(CCCO)CC2)NCCOc1ccccc1OCC(F)(F)F", "inhibition [%]": -1.01}
{"compound": "Cc1ccccc1N1CCN(CCc2nnc3n2CCCC3)CC1", "inhibition [%]": -6.14}
{"compound": "CCCCCNC(=O)NS(=O)(=O)c1cc([N+](=O)[O-])ccc1NC1CCCCC1", "inhibition [%]": 14.4}
{"compound": "COc1ccc(CCN(C)CCCC(C#N)(c2cc(OC)c(OC)c(OC)c2)C(C)C)cc1OC (configuration not stated)", "inhibition [%]": 3.04}
{"compound": "COCCOCCn1nc2c(c1C)-c1c(Cl)ccc3c1c(C)c(C(=O)O)n3CCCOc1cc(cc3c(F)c(Cl)ccc13)CCc1cc(nn1C)CSC2", "inhibition [%]": -0.959}
{"compound": "CC[C@H]1CN2CCc3cc(OC)c(OC)cc3[C@@H]2C[C@@H]1C[C@H]1NCCc2cc(OC)c(OC)cc21", "inhibition [%]": 3.39}
{"compound": "O=C(Nc1ccc(Cl)cc1)Nc1cccc(-c2cccc(N3CCCC3)n2)c1", "inhibition [%]": -0.275}
{"compound": "Cc1csc(NC(=O)c2cc(F)cc(Oc3cncnc3)c2)n1", "inhibition [%]": 4.86}
{"compound": "CN1CCN(C(=O)C(C)(C)c2ccc(C(=O)Nc3cn4cc(-c5ccncc5)ccc4n3)cc2)CC1", "inhibition [%]": 9.89}
{"compound": "OC(c1ccc(-c2ccc(CN3CCN(Cc4ccncc4)CC3)cc2)c(F)c1)(C(F)(F)F)C(F)(F)F", "inhibition [%]": -8.52}
{"compound": "CNC(=O)COc1cc2cc(Nc3nc(N4CCC(C(=O)N(C)C)CC4)ncc3Cl)cc(OC)c2n(C)c1=O", "inhibition [%]": -0.63}
{"compound": "COc1ccc(NC(=O)[C@@H]2C[C@H](C)CC[C@H]2C(C)C)cc1", "inhibition [%]": 15.4}
{"compound": "CS(=O)(=O)c1ccc(C(=O)Nc2ccc(Cl)c(-c3ccccn3)c2)c(Cl)c1", "inhibition [%]": -9.8}
{"compound": "Oc1ccc2c3c1O[C@H]1c4[nH]c5c(c4C[C@@]4(O)[C@@H](C2)N(CC2CC2)CC[C@]314)C[C@@]1(O)[C@H]2Cc3ccc(O)c4c3[C@@]1(CCN2CC1CC1)[C@H]5O4", "inhibition [%]": 5.59}
{"compound": "COc1nc2ccc([C@@](O)(c3ccc(Cl)cc3)c3cncn3C)cc2c(Cl)c1Cc1ccc(-n2cccn2)cc1", "inhibition [%]": -3.26}
{"compound": "C[C@H](CCOc1cccc(CC(=O)O)c1)N(Cc1cccc(C(F)(F)F)c1Cl)CC(c1ccccc1)c1ccccc1", "inhibition [%]": 11.9}
{"compound": "COc1ccc(-c2csc(NC(=O)[C@H]3CCCCN3S(=O)(=O)c3ccc(C)cc3)n2)cc1", "inhibition [%]": 22}
{"compound": "N=C(N)NC(=O)Cc1c(Cl)cccc1Cl", "inhibition [%]": 20.2}
{"compound": "O=C(O)c1ccc(C(=O)N[C@@H](c2ccc(OC(F)(F)F)c(F)c2)c2ncccc2F)nc1", "inhibition [%]": 22.9}
{"compound": "COc1ccc2[nH]c(I)c(CCNC(C)=O)c2c1", "inhibition [%]": -1.91}
{"compound": "C[C@@H](CN1CCC(Cc2ccccc2)CC1)[C@@H](O)c1ccc(O)cc1", "inhibition [%]": 12.9}
{"compound": "NCCc1cn(S(=O)(=O)c2c(Cl)nc3sccn23)c2ccccc12", "inhibition [%]": -1.91}
{"compound": "O=C(NCC1(N2CCN(c3ccccc3)CC2)CCOCC1)c1cccnc1Sc1ccccc1", "inhibition [%]": 23.7}
{"compound": "CNc1cc(Oc2cc(C(=O)Nc3cc(N4CCN(C)CC4)cc(C(F)(F)F)c3)ccc2C)ncn1", "inhibition [%]": 11.9}
{"compound": "CN1C[C@H](C(=O)N[C@]2(C)O[C@@]3(O)[C@@H]4CCCN4C(=O)[C@H](Cc4ccccc4)N3C2=O)C[C@@H]2c3cccc4[nH]cc(c34)C[C@H]21", "inhibition [%]": 15.8}
{"compound": "CCOC(=O)c1ncn2c1[C@@H]1CCCN1C(=O)c1cc(OC)ccc1-2", "inhibition [%]": -3.56}

###

molecular target: N-glycosylase/DNA lyase (Homo sapiens); details: Compound Concentration 1.0 uM, Hit No
Description: Inhibition of OGG1 by quantifying inhibition of OGG1-mediated cleavage and dissociation of quenched duplex DNA oligonucleotides, measured as fluorescence at 594 nm. To generate a functional strand incision and increase turn-over this assay is coupled to APE1.
measurement label: inhibition (%)

{"smiles structure": "O=C(Nc1ccc(-n2nc(-c3cccnc3)cc2C(F)(F)F)cn1)c1ccc(-c2ccccc2)c(F)c1", "units": "%", "obs value": 18.5}
{"smiles structure": "COc1cc2ncn(-c3cc(OCc4ccccc4C(F)(F)F)c(C(N)=O)s3)c2cc1OC", "units": "%", "obs value": 0.727}
{"smiles structure": "CN1CCN(c2ccc(OC(F)(F)F)c(Nc3ncc4c(n3)-c3c(c(C(N)=O)nn3CCO)CC4)c2)CC1", "units": "%", "obs value": -4.24}
{"smiles structure": "COc1cccc(CNC(=O)c2nc3scc(COCc4ccc(C(=O)O)cc4)c3c(=O)[nH]2)c1", "units": "%", "obs value": 12.5}
{"smiles structure": "O=C(NCc1ncc(C(F)(F)F)cc1Cl)c1ccc2c(c1)C1(CCS(=O)(=O)CC1)[C@H](C1CC1)N2S(=O)(=O)c1ccc(F)cc1", "units": "%", "obs value": -6.07}
{"smiles structure": "CC(C)(O)c1ccc(N2Cc3c(ccnc3-c3ccc(F)cc3OCC(F)(F)F)C2=O)cc1", "units": "%", "obs value": -2.43}
{"smiles structure": "C[C@H](NC(=O)c1cn(C2(C#N)CC2)cn1)C(=O)Nc1nc(-c2cccc(-c3ccn(C)n3)c2)cs1", "units": "%", "obs value": -5.28}
{"smiles structure": "O[C@]1(C(F)(F)F)CCCC[C@H]1Nc1ccc(F)cc1", "units": "%", "obs value": -4.39}
{"smiles structure": "Nc1c(C(=O)NCc2ccc(C(=O)NCCCC3CCCCC3)cc2)cnn1-c1ccccc1", "units": "%", "obs value": 3.23}

###

inhibition overview
molecular target: Uracil-DNA glycosylase (Homo sapiens) (UniProt P13051); details: Compound Concentration 1.0 uM, Hit No;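 note: UNG excision on a quenched double-stranded DNA oligo probe, with APE1 added for strand incision and turnover, read as fluorescence at 594 nm as strands separate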
Sequence (P13051 whole entry): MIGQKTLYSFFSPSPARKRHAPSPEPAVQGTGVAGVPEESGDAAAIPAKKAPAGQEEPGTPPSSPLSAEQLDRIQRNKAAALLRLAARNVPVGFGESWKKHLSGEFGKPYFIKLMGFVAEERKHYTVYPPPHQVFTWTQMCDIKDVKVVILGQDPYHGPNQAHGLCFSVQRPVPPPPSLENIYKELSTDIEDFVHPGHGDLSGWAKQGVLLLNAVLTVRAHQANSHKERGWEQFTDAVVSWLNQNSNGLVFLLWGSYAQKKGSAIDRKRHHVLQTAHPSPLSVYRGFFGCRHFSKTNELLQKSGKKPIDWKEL
Description: Inhibition of UNG by quantifying inhibition of UNG-mediated cleavage and dissociation of quenched duplex DNA oligonucleotides, measured as fluorescence at 594 nm. To generate a functional strand incision and increase turn-over this assay is coupled to APE1.
measurement label: inhibition (%)

{"smiles structure": "COc1c(OCCCN2CCOCC2)ccc2c1N=C(NC(=O)c1cnc(N)nc1)N1CCN=C21", "obs value": -3.63}
{"smiles structure": "Nc1ncc2c(n1)-c1c([nH]c3ccc(C4CC4)cc13)CCCC2", "obs value": 3.77}
{"smiles structure": "COc1ccc2cc(OCC3(C(=O)O)CN(C(=O)c4ccc(F)cc4)C3)ccc2c1", "obs value": -0.296}
{"smiles structure": "O=C(Nc1ccc(-c2ccnc(Nc3ccc(N4CCOCC4)cc3)n2)cc1)[C@@H]1CCCN1", "obs value": 3.18}
{"smiles structure": "O=C(c1ccc(F)cc1)N1CC(COc2ccc(Br)cc2)(C(=O)O)C1", "obs value": 0.879}
{"smiles structure": "c1ccc(-c2oc3ncnc(NC[C@@H]4CCCO4)c3c2-c2ccccc2)cc1", "obs value": 4.04}
{"smiles structure": "O=C(NCc1ncc(C(F)(F)F)cc1Cl)c1ccc2c(c1)C1(CCS(=O)(=O)CC1)[C@H](C1CC1)N2S(=O)(=O)c1ccc(F)cc1", "obs value": -0.35}
{"smiles structure": "Cc1cc(NC(=O)c2cccc(S(F)(F)(F)(F)F)c2)cc(-n2ccn3nc(-c4cccnc4)cc23)c1", "obs value": 1.8}
{"smiles structure": "COC[C@H](NC(=O)c1ccn(S(C)(=O)=O)c1)C(=O)Nc1nc(-c2cccc(-c3ccn(C)n3)c2)cs1", "obs value": 4.22}
{"smiles structure": "C[C@@H]1CN(c2cc(-c3nn(C)c4ccc(OC5(C)CC5)cc34)ncn2)C[C@H](C)O1", "obs value": -5.93}
